Biological target: CAMK2G (human) (UniProt Q13555)
Sequence (Q13555 whole entry, looked up): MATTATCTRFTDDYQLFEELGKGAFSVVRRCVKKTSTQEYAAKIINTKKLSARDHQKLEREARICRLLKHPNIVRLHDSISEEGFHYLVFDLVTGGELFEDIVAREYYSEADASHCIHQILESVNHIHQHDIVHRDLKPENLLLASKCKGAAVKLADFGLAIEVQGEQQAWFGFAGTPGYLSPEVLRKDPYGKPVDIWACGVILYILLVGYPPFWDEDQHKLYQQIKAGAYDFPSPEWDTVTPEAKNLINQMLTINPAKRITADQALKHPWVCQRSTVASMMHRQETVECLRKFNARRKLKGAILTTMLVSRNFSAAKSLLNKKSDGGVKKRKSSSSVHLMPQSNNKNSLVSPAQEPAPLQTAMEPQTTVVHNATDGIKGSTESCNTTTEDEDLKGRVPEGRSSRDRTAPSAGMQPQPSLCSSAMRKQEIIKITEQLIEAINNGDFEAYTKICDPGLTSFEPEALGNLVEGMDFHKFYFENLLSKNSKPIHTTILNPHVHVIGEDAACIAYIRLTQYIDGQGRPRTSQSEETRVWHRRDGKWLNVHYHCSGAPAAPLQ
Assay: KINOMEscan competition binding
Conditions: compound 10.0 µM
What kinase still bound, per cent of control was measured for each of the following?
Answers are plain numbers, in %.

- compound: "C=CC(=O)Nc1cccc(Oc2nc(Nc3ccc(N4CCN(C)CC4)cc3OC)ncc2Cl)c1"
  kinase still bound, per cent of control, %: 100
- compound: "Nc1ccc(-c2ccc3ncc4ccc(=O)n(-c5cccc(C(F)(F)F)c5)c4c3c2)cn1"
  kinase still bound, per cent of control, %: 95
- compound: "Cc1ccc(NC(=O)c2cccc(C(C)(C)C#N)c2)cc1Nc1ccc2ncn(C)c(=O)c2c1"
  kinase still bound, per cent of control, %: 100
- compound: "Cc1cc([C@@H](C)Nc2ccccc2C(=O)O)c2nc(N3CCOCC3)cc(=O)n2c1"
  kinase still bound, per cent of control, %: 98

Batch of 6 compounds: report kinase still bound, per cent of control for each.
1. O=C(NOC[C@H](O)CO)c1ccc(F)c(F)c1Nc1ccc(I)cc1F
2. CCC(=O)N1CCN(c2ccc(-n3c(=O)ccc4cnc5ccc(-c6cnc7ccccc7c6)cc5c43)cc2C(F)(F)F)CC1
3. O=C1Nc2ccc(I)cc2/C1=C/c1cc(Br)c(O)c(Br)c1
4. CCN1CCN(Cc2ccc(Nc3ncc4c(n3)N(C)c3ccccc3C(=O)N4C)cc2C(F)(F)F)CC1
5. CCCS(=O)(=O)Nc1ccc(F)c(C(=O)c2c[nH]c3ncc(-c4ccc(Cl)cc4)cc23)c1F
6. C[C@@H](Oc1cc(-n2cnc3ccc(CN4CCN(C)CC4)cc32)sc1C(N)=O)c1ccccc1C(F)(F)F

1: 100; 2: 79; 3: 40; 4: 81; 5: 95; 6: 15

Batch of 6 compounds: report kinase still bound, per cent of control for each.
1. COc1cc(N2CCN(C)CC2)ccc1Nc1nc(N)c(C(=O)c2c(Cl)cccc2Cl)s1
2. N#Cc1c(NC(=O)c2cccc3ccccc23)sc2c1CCCC2
3. COc1cc(C(=O)NC2CCN(C)CC2)ccc1Nc1ncc2c(n1)N(C1CCCC1)CCC(=O)N2C(C)C
4. Cc1ccc(C(=O)Nc2cccc(C(F)(F)F)c2)cc1Nc1cncc(C(N)=O)c1
5. C=CC(=O)Nc1cccc(Nc2nc(N[C@H]3CC[C@H](N(C)C)CC3)nc3c2ncn3C(C)C)c1
6. C=CC(=O)Nc1cc(NC(=O)c2ccc(C)c(NC(=O)c3ccno3)c2)cc(C(F)(F)F)c1

17
94
100
100
76
89

Batch of 4 compounds: report kinase still bound, per cent of control for each.
1. CN(C)C/C=C/C(=O)Nc1cccc(Nc2ncc3c(n2)N(C)c2ccccc2C(=O)N3C)c1
2. Cc1ccc2nc(NCCN)c3ncc(C)n3c2c1
3. OCCCNc1cc(-c2ccnc(Nc3cccc(Cl)c3)n2)ccn1
4. CC[C@@H]1C(=O)N(C)c2cnc(Nc3ccc(C(=O)NC4CCN(C)CC4)cc3OC)nc2N1C1CCCC1

[46, 100, 100, 100]

Batch of 2 compounds: report kinase still bound, per cent of control for each.
1. CCOc1cc2ncc(C#N)c(Nc3ccc(OCc4ccccn4)c(Cl)c3)c2cc1NC(=O)/C=C/CN(C)C
2. O=C(O)c1ccc(Nc2ncc3c(n2)-c2ccc(Cl)cc2C(c2c(F)cccc2F)=NC3)cc1

95
98

----------
Biological target: CHEK1 (human) (UniProt O14757)
Sequence (O14757 whole entry, looked up): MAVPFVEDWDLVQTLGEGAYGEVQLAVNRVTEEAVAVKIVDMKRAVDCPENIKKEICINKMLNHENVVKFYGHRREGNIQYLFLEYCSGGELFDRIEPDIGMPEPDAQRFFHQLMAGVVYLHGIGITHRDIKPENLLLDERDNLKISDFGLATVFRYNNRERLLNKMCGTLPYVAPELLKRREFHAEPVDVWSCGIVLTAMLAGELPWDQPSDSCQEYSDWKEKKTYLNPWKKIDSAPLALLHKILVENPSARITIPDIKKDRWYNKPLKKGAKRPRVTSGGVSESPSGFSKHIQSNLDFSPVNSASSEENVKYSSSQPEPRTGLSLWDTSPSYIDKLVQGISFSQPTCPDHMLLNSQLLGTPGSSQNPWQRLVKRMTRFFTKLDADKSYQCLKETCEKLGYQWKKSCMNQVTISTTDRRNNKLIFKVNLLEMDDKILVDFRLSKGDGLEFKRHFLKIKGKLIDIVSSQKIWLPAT
Assay: KINOMEscan competition binding
Details: compound 10.0 µM
readout_type: kinase still bound, per cent of control (%)
Numbers only, in %.

- molecular_string: "C=CC(=O)Nc1cccc(Oc2nc(Nc3ccc(N4CCN(C)CC4)cc3OC)ncc2Cl)c1"
  subject_of_test: "CHEK1 (human) (UniProt O14757)"
  readout_type: "kinase still bound, per cent of control"
  unit_label: "%"
  readout_value: 7
- molecular_string: "CCOc1cc2ncc(C#N)c(Nc3ccc(OCc4ccccn4)c(Cl)c3)c2cc1NC(=O)/C=C/CN(C)C"
  subject_of_test: "CHEK1 (human) (UniProt O14757)"
  readout_type: "kinase still bound, per cent of control"
  unit_label: "%"
  readout_value: 65
- molecular_string: "Cn1c(=O)n(-c2ccc(C(C)(C)C#N)cc2)c2c3cc(-c4cnc5ccccc5c4)ccc3ncc21"
  subject_of_test: "CHEK1 (human) (UniProt O14757)"
  readout_type: "kinase still bound, per cent of control"
  unit_label: "%"
  readout_value: 100

Now let's try a different one.
kinase still bound, per cent of control lookup needed for Cc1ccc(NC(=O)c2cccc(C(C)(C)C#N)c2)cc1Nc1ccc2ncn(C)c(=O)c2c1 , thanks. 84

----------
Target: UniProt P42681
Sequence (P42681 whole entry, looked up): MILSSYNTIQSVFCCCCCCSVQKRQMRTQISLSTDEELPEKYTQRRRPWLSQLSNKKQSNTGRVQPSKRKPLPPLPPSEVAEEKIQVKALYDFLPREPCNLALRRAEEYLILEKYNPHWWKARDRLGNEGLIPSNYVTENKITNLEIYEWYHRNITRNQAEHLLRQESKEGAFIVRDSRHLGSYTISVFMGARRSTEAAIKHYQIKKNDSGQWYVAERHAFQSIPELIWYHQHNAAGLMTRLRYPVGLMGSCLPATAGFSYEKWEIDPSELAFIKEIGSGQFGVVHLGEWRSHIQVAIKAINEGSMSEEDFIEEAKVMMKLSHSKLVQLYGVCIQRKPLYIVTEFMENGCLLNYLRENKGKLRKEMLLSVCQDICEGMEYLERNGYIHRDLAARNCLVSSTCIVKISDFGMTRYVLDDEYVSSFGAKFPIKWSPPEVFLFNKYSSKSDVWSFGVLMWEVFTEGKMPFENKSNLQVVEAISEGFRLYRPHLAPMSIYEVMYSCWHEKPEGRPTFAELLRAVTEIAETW
Experiment: KINOMEscan competition binding
Details: compound 10.0 µM
What kinase still bound, per cent of control was measured for each of the following?
Numbers only, in %.

Reference set (5 entries):
- molecular_string: "CC[C@@H]1C(=O)N(C)c2cnc(Nc3ccc(C(=O)NC4CCN(C)CC4)cc3OC)nc2N1C1CCCC1"
  readout_value: 100
- molecular_string: "C=CC(=O)Nc1cccc(Oc2nc(Nc3ccc(N4CCN(C)CC4)cc3OC)ncc2Cl)c1"
  readout_value: 16
- molecular_string: "O=C1Nc2ccc(I)cc2/C1=C/c1cc(Br)c(O)c(Br)c1"
  readout_value: 100
- molecular_string: "C[C@@H](Oc1cc(-n2cnc3ccc(CN4CCN(C)CC4)cc32)sc1C(N)=O)c1ccccc1C(F)(F)F"
  readout_value: 71
- molecular_string: "OCCCNc1cc(-c2ccnc(Nc3cccc(Cl)c3)n2)ccn1"
  readout_value: 100

Batch of 4 molecules: report kinase still bound, per cent of control for each.
1. O=C(NC1CC1)c1cccc(-c2ccc3c(NC(=O)C4CC4)n[nH]c3c2)c1
2. CCOc1cc2ncc(C#N)c(Nc3ccc(OCc4ccccn4)c(Cl)c3)c2cc1NC(=O)/C=C/CN(C)C
3. Cc1cc([C@@H](C)Nc2ccccc2C(=O)O)c2nc(N3CCOCC3)cc(=O)n2c1
4. Cc1ccc(C(=O)Nc2cccc(C(F)(F)F)c2)cc1Nc1cncc(C(N)=O)c1

1: 77; 2: 86; 3: 90; 4: 100

----------
Target: CSNK1A1L (human)
Experiment: KINOMEscan competition binding
Settings: compound 10.0 µM
readout_type: kinase still bound, per cent of control (%)
Numbers only, in %.

Reference set (4 entries):
- compound: "O=C(NC1CC1)c1cccc(-c2ccc3c(NC(=O)C4CC4)n[nH]c3c2)c1"
  unit_label: "%"
  kinase still bound, per cent of control: 100
- compound: "Nc1ccc(-c2ccc3ncc4ccc(=O)n(-c5cccc(C(F)(F)F)c5)c4c3c2)cn1"
  unit_label: "%"
  kinase still bound, per cent of control: 89
- compound: "O=C(NOC[C@H](O)CO)c1ccc(F)c(F)c1Nc1ccc(I)cc1F"
  unit_label: "%"
  kinase still bound, per cent of control: 80
- compound: "CN(C)C/C=C/C(=O)Nc1cccc(Nc2ncc3c(n2)N(C)c2ccccc2C(=O)N3C)c1"
  unit_label: "%"
  kinase still bound, per cent of control: 100

Batch of 2 compounds: report kinase still bound, per cent of control for each.
1. CCCS(=O)(=O)Nc1ccc(F)c(C(=O)c2c[nH]c3ncc(-c4ccc(Cl)cc4)cc23)c1F
2. COc1cc(N2CCN(C)CC2)ccc1Nc1nc(N)c(C(=O)c2c(Cl)cccc2Cl)s1

1. 100
2. 100

Batch of 8 compounds: report kinase still bound, per cent of control for each.
1. COc1cc(C(=O)NC2CCN(C)CC2)ccc1Nc1ncc2c(n1)N(C1CCCC1)CCC(=O)N2C(C)C
2. Cc1cc([C@@H](C)Nc2ccccc2C(=O)O)c2nc(N3CCOCC3)cc(=O)n2c1
3. Cn1c(=O)n(-c2ccc(C(C)(C)C#N)cc2)c2c3cc(-c4cnc5ccccc5c4)ccc3ncc21
4. COc1cc(C(=O)NC2CCN(C)CC2)ccc1Nc1ncc2c(n1)N(C1CCCC1)C(C)CC(=O)N2C (stereo not drawn)
5. CCC(=O)N1CCN(c2ccc(-n3c(=O)ccc4cnc5ccc(-c6cnc7ccccc7c6)cc5c43)cc2C(F)(F)F)CC1
6. CCN1CCN(Cc2ccc(Nc3ncc4c(n3)N(C)c3ccccc3C(=O)N4C)cc2C(F)(F)F)CC1
7. OCCCNc1cc(-c2ccnc(Nc3cccc(Cl)c3)n2)ccn1
8. C=CC(=O)Nc1cccc(Nc2nc(N[C@H]3CC[C@H](N(C)C)CC3)nc3c2ncn3C(C)C)c1

1: 100; 2: 100; 3: 100; 4: 100; 5: 81; 6: 74; 7: 100; 8: 1.5

Batch of 4 compounds: report kinase still bound, per cent of control for each.
1. C[C@@H](Oc1cc(-n2cnc3ccc(CN4CCN(C)CC4)cc32)sc1C(N)=O)c1ccccc1C(F)(F)F
2. O=C(O)c1ccc(Nc2ncc3c(n2)-c2ccc(Cl)cc2C(c2c(F)cccc2F)=NC3)cc1
3. Cc1ccc(C(=O)Nc2cccc(C(F)(F)F)c2)cc1Nc1cncc(C(N)=O)c1
4. CCOc1cc2ncc(C#N)c(Nc3ccc(OCc4ccccn4)c(Cl)c3)c2cc1NC(=O)/C=C/CN(C)C

84
97
100
98
